assay-target: ErbB-4 receptor-Ig fusion (human) (UniProt Q15303)
Sequence (Q15303 other isoform, or with tags, fused parts or gaps): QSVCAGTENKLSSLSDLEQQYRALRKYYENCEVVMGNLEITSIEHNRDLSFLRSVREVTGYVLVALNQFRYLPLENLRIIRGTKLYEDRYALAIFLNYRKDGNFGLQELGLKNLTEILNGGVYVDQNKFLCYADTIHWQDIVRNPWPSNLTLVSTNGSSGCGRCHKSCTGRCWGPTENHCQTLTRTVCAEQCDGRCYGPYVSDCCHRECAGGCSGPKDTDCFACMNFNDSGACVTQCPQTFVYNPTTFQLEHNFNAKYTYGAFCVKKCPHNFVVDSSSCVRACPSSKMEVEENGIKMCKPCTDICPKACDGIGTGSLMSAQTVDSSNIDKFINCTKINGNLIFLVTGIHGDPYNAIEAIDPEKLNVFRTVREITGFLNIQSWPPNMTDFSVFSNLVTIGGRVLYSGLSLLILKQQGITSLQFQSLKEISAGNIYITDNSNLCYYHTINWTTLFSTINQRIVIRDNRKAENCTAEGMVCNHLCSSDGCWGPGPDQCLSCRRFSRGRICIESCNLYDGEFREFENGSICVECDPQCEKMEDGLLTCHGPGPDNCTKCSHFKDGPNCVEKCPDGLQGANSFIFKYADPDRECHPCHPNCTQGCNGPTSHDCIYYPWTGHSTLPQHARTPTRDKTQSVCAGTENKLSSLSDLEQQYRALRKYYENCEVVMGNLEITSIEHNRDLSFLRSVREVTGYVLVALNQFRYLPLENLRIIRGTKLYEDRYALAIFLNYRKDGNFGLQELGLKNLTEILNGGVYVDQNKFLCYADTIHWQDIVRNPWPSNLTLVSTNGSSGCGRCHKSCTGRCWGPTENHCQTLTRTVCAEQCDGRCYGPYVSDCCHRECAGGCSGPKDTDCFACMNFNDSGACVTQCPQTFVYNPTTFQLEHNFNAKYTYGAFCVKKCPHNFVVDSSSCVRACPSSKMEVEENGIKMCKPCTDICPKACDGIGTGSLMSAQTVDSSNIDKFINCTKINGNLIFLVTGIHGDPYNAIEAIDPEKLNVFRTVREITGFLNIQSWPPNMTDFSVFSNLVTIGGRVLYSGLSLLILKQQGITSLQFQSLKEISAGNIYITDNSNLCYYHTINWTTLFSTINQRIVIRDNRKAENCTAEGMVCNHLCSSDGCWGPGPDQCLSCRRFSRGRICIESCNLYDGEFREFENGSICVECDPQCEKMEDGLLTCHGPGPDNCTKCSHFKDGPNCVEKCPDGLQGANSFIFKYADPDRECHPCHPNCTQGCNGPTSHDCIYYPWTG
assay-explanation: 125I-HRG-β1 177-244 displacement, ErbB-4-Ig on plate
measured-quantity: pEC50
A value of pEC50 is the negative decimal logarithm of a concentration given in moles per litre.

Bench note: what pEC50 did recombinantly produced HRG-β1 177-244 (ligand, human, UniProt Q02297-6 177-244, looked up) SHLVKCAEKEKTFCVNGGECFMVKDLSNPSRYLCKCPNEFTGDRCQNYVMASFYKHLGIEFMEAEELY show? 7.83
